Ref: paper PMC13053910

# system: CBX2 ChD (Homo sapiens, UniProt Q14781)
# Construct: CBX chromodomain constructs (addgene plasmid #25158 (CBX2), and #62514 (CBX8, provided by Cheryl Arrowsmith)); 6His; host or cells: E. coli (BL21 CodonPlus RIL or Rosetta 2)
# Sequence (Q14781 12-70 limits assumed): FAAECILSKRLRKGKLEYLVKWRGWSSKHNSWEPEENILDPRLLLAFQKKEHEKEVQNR
# assay name: Time-dependent fluorescence polarization displacement assay, CBX2 ChD
# Assay type: binding
# condition description: IC50 at 20 h, Figure 5d; CBX2 ChD 2 µM, probe 100 nM
pIC50: −log10 of the molar value.

# compound, system, pIC50
measured = [
    ("CC[C@H](C)[C@H](NC(=O)[C@@H](NC(=O)c1ccc(Oc2ccccc2)cc1)C1CCCC1)C(=O)N[C@@H](CCCCN(CC)CCCCCCN1CCN=CC1=O)C(=O)N[C@@H](CO)C(N)=O [P1b]", "CBX2 ChD (Homo sapiens, UniProt Q14781)", 4.82),
]

###

# system: CBX8 ChD (Homo sapiens, UniProt Q9HC52)
# Construct: CBX chromodomain constructs (addgene plasmid #25158 (CBX2), and #62514 (CBX8, provided by Cheryl Arrowsmith)); 6His; host or cells: E. coli (BL21 CodonPlus RIL or Rosetta 2)
# Sequence (Q9HC52 11-69 limits assumed): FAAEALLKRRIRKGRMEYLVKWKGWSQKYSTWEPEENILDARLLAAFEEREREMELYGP
# assay name: Time-dependent fluorescence polarization displacement assay, CBX8 ChD
# Format: binding
# condition description: IC50 at 20 h, Figure 5d; CBX8 ChD 2 µM, probe 100 nM, PBS pH 7
reported endpoint: IC50 (nM)

# compound, system, endpoint unit, reported
measured = [
    ("CC[C@H](C)[C@H](NC(=O)[C@@H](NC(=O)c1ccc(Oc2ccccc2)cc1)C1CCCC1)C(=O)N[C@@H](CCCCN(CC)CCCCCCN1CCN=CC1=O)C(=O)N[C@@H](CO)C(N)=O [P1b]", "CBX8 ChD (Homo sapiens, UniProt Q9HC52)", "nM", 2000),
]

###

# assay name: Reaction of cyclic imine Mannich or sulfur fluoride electrophiles with Ac-Tyr-NHMe (HPLC, LC/MS)
# Format: physicochemical
# condition description: electrophile 5 mM, N‐acetyl‐l‐tyrosine methyl amide 100 mM, PBS pH 7, 37 °C
reactivity (t1/2) by entry:

# compound, endpoint unit, reactivity (t1/2)
measured = [
    ("NCCc1ccc(S(=O)(=O)F)cc1 [compound 13, reference compound]", "h", 0.28),
    ("O=C1C=NC2CCCCC2N1 (stereo not shown)", "h", 8),
    ("O=S1(=O)N=Cc2ccccc21", "h", 2.4),
]

###

# system: CBX2 ChD (Homo sapiens)
# Construct: CBX chromodomain constructs (addgene plasmid #25158 (CBX2), and #62514 (CBX8, provided by Cheryl Arrowsmith)); 6His; host or cells: E. coli (BL21 CodonPlus RIL or Rosetta 2)
# assay name: Time-dependent fluorescence polarization displacement assay, CBX2 ChD
# Type: binding
# condition description: Figure 5d; CBX2 ChD 2 µM, probe 100 nM; read-out: IC50 at time 0
pIC50: −log10 of the molar value.

# compound, pIC50
rows = [
    ("CC[C@H](C)[C@H](NC(=O)[C@@H](NC(=O)c1ccc(Oc2ccccc2)cc1)C1CCCC1)C(=O)N[C@@H](CCCCN(CC)CCCCCCN1CCN=CC1=O)C(=O)N[C@@H](CO)C(N)=O [P1b]", 4.77),
]

###

# system: CBX8 ChD Y39F (Homo sapiens, UniProt Q9HC52, Y39F)
# Construct: 6His (N); TEV site (ENLYFQG), read by me from the printed insert DNA (N); host or cells: E. coli (BL21 CodonPlus RIL or Rosetta 2), pET-28a(+)
# Sequence (Q9HC52 11-69 Y39F limits assumed): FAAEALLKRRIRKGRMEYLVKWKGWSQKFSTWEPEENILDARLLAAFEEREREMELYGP
# assay name: Time-dependent fluorescence polarization displacement assay, CBX8 Y39F
# Format: binding
# condition description: Figure 5d; CBX8 Y39F 2 µM, probe 100 nM; read-out: IC50 at time 0
pIC50: −log10 of the molar value.

# structure smiles, pIC50
data = [
    ("CC[C@H](C)[C@H](NC(=O)[C@@H](NC(=O)c1ccc(Oc2ccccc2)cc1)C1CCCC1)C(=O)N[C@@H](CCCCN(CC)CCCCCCN1CCN=CC1=O)C(=O)N[C@@H](CO)C(N)=O", 4.92),
]
